- SYSTEM: Bromodomain-containing protein 4 (Homo sapiens) (UniProt O60885)
- ASSAY_COMMENT: Binding affinity of recombinant His-tagged BRD4-BD1 (unknown origin) to histone H4Ac (1 to 21 residues) K5/8/12/Ac-Biotin-OH assessed as residual binding at 10 uM incubated for 30 mins by alphascreen analysis relative to control
Assign Activity to each entry below.
Numbers only, in %.

Take a look at these entries with their results.
CCc1nn(CC)c(=O)n1-c1cccc(C(F)(F)F)c1; 97.7
CCn1nc(C)n(-c2ccc(OC)c(OC)c2)c1=O; 99.2
CCn1nc(C)n(-c2ccc3c(c2)OCO3)c1=O; 96.2
CCc1nn(C)c(=O)n1-c1ccc(F)c(Cl)c1; 99.2

Let us move to another entry and its Activity.
May I ask what Activity has been recorded for `CCn1nc(C)n(-c2ccc(F)c(Cl)c2)c1=O` ?
99

###

Please go through the items and note down their IC50.
- System: Caco-2
- ASSAY_COMMENT: Cytotoxicity against human Caco-2 cells assessed as cell viability measured after 24 hrs by MTT assay
- Assay type: functional, cell-based
- STATED_CONDITIONS: Caco-2, 24 h
Numbers only, in µM.

COc1ccc(-n2c(C)nn(C)c2=O)cc1OC; 300

Could I get IC50 for every one of these entries?
1. CCn1nc(C)n(-c2ccc(OC)c(OC)c2)c1=O
2. CCc1nn(C)c(=O)n1-c1ccc2c(c1)OCO2
3. Cc1nn(C)c(=O)n1-c1ccc2c(c1)OCO2

300
330
370

###

- SYSTEM: Bromodomain adjacent to zinc finger domain protein 2B (Homo sapiens)
- ASSAY_COMMENT: Binding affinity of recombinant His-tagged BAZ2B (unknown origin) to histone H3 (1 to 21 residues) K9/14Ac-Biotin-OH assessed as residual binding at 10 uM incubated for 30 mins by alphascreen analysis relative to control
OBSERVATION_TYPE: Activity

Example results:
CCc1nn(CC)c(=O)n1-c1cccc(C(F)(F)F)c1; > 100%
CCn1nc(C)n(-c2ccc(OC)c(OC)c2)c1=O; > 100%
COc1ccc(-n2c(C)nn(C)c2=O)cc1OC; > 100%
CCn1nc(C)n(-c2ccc(F)c(Cl)c2)c1=O; > 100%
Cc1nn(C)c(=O)n1-c1ccc2c(c1)OCO2; 92.8%
CCn1nc(C)n(-c2ccc3c(c2)OCO3)c1=O; 97.5%
CCc1nn(C)c(=O)n1-c1ccc2c(c1)OCO2; > 100%
CCc1nn(C)c(=O)n1-c1ccc(F)c(Cl)c1; > 100%

Now look at this entry.
Please provide the recorded Activity for `CCc1nn(C)c(=O)n1-c1ccc(OC)c(OC)c1` , tested on Bromodomain adjacent to zinc finger domain protein 2B (Homo sapiens).
> 100%

###

- SYSTEM: Bromodomain-containing protein 3 (Homo sapiens)
- ASSAY_COMMENT: Binding affinity of recombinant His-tagged BRD3-BD1 (unknown origin) to histone H4Ac (1 to 21 residues) K5/8/12/Ac-Biotin-OH assessed as residual binding at 10 uM incubated for 30 mins by alphascreen analysis relative to control
OBSERVATION_TYPE: Activity (%)
One number for each entry, in %.

Worked examples follow.
CCn1nc(C)n(-c2ccc3c(c2)OCO3)c1=O; 74.8
CCn1nc(C)n(-c2ccc(OC)c(OC)c2)c1=O; 97.8
Cc1nn(C)c(=O)n1-c1ccc2c(c1)OCO2; 97.3
CCc1nn(C)c(=O)n1-c1ccc(OC)c(OC)c1; 97.3

# input molecule: `CCc1nn(C)c(=O)n1-c1ccc2c(c1)OCO2` ; wanted: its Activity
96.5
